assay: in vivo; details: male, SD, rat, iv, 1 mg/kg, Cmax
Measured Endpoint: Cmax (ng/mL)

P = CCCCNc1nc(C)nc2[nH]c(C)nc12 [MTK-115D]
Q = c1coc(CNc2ncnc3[nH]cnc23)c1 [kinetin, reference compound]
## Input Between the two listed entries P and Q , which has its Cmax at the higher number? Record your answer as the label of the chosen record.
## Output P
(P: 1440 ng/mL, Q: 176 ng/mL)

a = Cc1nc(NCc2ccco2)c2nc(C)[nH]c2n1
b = C/C=C/CNc1nc(C)nc2[nH]cnc12 [MTK-63A]
## Input Of a and b , which shows the smaller Cmax value? Reply with the label of the item you choose.
## Output b
(b: 1140 ng/mL, a: 1850 ng/mL)
